Cited source: patent US5180831A

test: in vivo; conditions: mouse, po
value-type: LD50 at 24 h (µmol/kg)
Use µmol/kg as the unit, but write only the number.

Lab book: LD50 at 24 h of C[n+]1cccc(O)c1C=NNC(=O)C[n+]1ccccc1 [Compound 5a] noted as 2900

As a next step, examine the compound that follows.
The value of LD50 at 24 h measured for the compound C[n+]1cccc(O)c1C=NOCc1ccccc1 [Compound 1b] turned out to be 3600

---

test: in vivo; conditions: mouse, im
Each record here notes measured LD50 at 24 h.

Some solved entries appear below for comparison.
Input `C[n+]1cccc(O)c1C=NOCc1ccc(Cl)cc1` . Output LD50 at 24 h: > 320 µmol/kg

GET /value?item= C[n+]1ccccc1/C=N/O [Compound 2-PAM, reference compound] &field=LD50 at 24 h returns 853 µmol/kg

Continuing:
Documented LD50 at 24 h of `C[n+]1ccccc1C=NOCc1ccccc1` : 180 µmol/kg

Sample `C[n+]1ccccc1C=NNC(=O)Nc1ccccc1.[Cl-]` ; LD50 at 24 h observed: > 430 µmol/kg

Given item `C[n+]1ccccc1C=NNC(=O)C[n+]1ccccc1` , the value recorded as its LD50 at 24 h is 380 µmol/kg
